Parameter CC50 at 4 days: see the listing below.
Assay: Compound cytotoxicity, XTT-based colorimetric assay
Format: cell-based
Settings: human, uninfected MT2 cells, Table 1a, day 4, XTT

CS(=O)(=O)Nc1n[nH]c2c(-c3cc4[nH]ccc4nc3[C@H](Cc3cc(F)cc(F)c3)NC(=O)Cn3nc(C(F)F)c4c3C(F)(F)[C@@H]3C[C@H]43)ccc(Cl)c12 ... > 10000 nM

## Task Requested field: CC50 at 4 days. Item: CCOc1ccc2c(=O)n(-c3ccc(Cl)c4c(NS(C)(=O)=O)nn(C)c34)c([C@H](Cc3cc(F)cc(F)c3)NC(=O)Cn3ccc(C4CC4)n3)nc2n1 (single isomer, unassigned)
## Result > 1000 nM

## Task Requested field: CC50 at 4 days. Item: Cn1nc(NS(C)(=O)=O)c2c(Cl)ccc(-n3c([C@H](Cc4cc(F)cc(F)c4)NC(=O)Cn4nc(C(F)F)c5c4C(F)(F)[C@@H]4C[C@H]54)nc4cccc(C(F)(F)F)c4c3=O)c21 (single isomer, unassigned)
## Result > 1000 nM
